Sourced from patent US6461997B1

Exercise: state measured inhibition at 900 g/ha for each of the compounds provided.
- Tested on: DIGSA (large crabgrass)
- test description: Pre-plant incorporated (PPI) herbicidal activity, warm season
- Assay type: in vivo, Digitaria sanguinalis
- particulars: Digitaria sanguinalis; PPI application, 900 g/ha; read-out: Percent inhibition DIGSA
All answers are understood in %, so give the number only.

Exercise: # lookup: inhibition at 900 g/ha of `CCSC(F)(F)S(=O)(=O)c1ncn(C(=O)N(CC)CC)n1`
Solution: 100

Exercise: # lookup: inhibition at 900 g/ha of `C=C(C)CC(F)(F)S(=O)(=O)c1ncn(C(=O)N(CC)CC)n1`
Solution: 100

Exercise: # lookup: inhibition at 900 g/ha of `CCN(CC)C(=O)n1cnc(S(=O)(=O)C(F)(F)Br)n1`
Solution: 100

Exercise: # lookup: inhibition at 900 g/ha of `C=C(Br)CC(F)(F)S(=O)(=O)c1ncn(C(=O)N(CC)CC)n1`
Solution: 99

Exercise: # lookup: inhibition at 900 g/ha of `CCN(CC)C(=O)n1cnc(S(=O)(=O)C(F)F)n1`
Solution: 100

Exercise: # lookup: inhibition at 900 g/ha of `C=CCC(F)(F)S(=O)(=O)c1ncn(C(=O)N(CC)CC)n1`
Solution: 100
